Tested on: AR mRNA
Assay: AR mRNA in liver, heart, skeletal muscle, kidney, prostate of cynomolgus monkeys
Format: in vivo
Condition set: cynomolgus monkey, 40 mg/kg subcutaneously, weeks 1 to 6, Heart
Experimental: Cynomolgus monkeys were treated with ISIS antisense oligonucleotides selected from studies described above. Antisense oligonucleotide efficacy and tolerability were evaluated. The human antisense oligonucleotides tested are cross-reactive with the rhesus genomic sequence (GENBANK Accession No. NW_001218131.1 truncated from nucleotides 134001 to 308000 and designated herein as SEQ ID NO: 189). […]
Oligonucleotides are written 5' to 3', each unit as a sugar letter and its base; * is a phosphorothioate linkage, no mark a phosphodiester; rarer units and linkages stand in square brackets, end groups in braces. Plain capitals give the bases only. e = 2'-O-(2-methoxyethyl) (MOE); k = constrained ethyl (cEt); [5mC] = 5-methylcytosine; d = 2'-deoxy (DNA)
Value type: Percent Inhibition of AR mRNA relative to the PBS control, Heart
Answer format: value, then unit.

                                  substance  study_system  result
0  579671 (antisense eT*kT*kG*eA*kT*kT*dT*dA*dA*dT*dG*dG*dT*kT*kG*k[5mC]) [compound 579671]       AR mRNA     24%
1  584163 (kG*kA*kA*d[5mC]*dA*dT*dT*dA*dT*dT*dA*dG*dG*k[5mC]*kT*kA) [compound 584163]       AR mRNA     53%
2  583918 (kA*kG*kT*d[5mC]*dG*d[5mC]*dG*dA*d[5mC]*dT*d[5mC]*dT*dG*kG*kT*kA) [compound 583918]       AR mRNA     76%
3  584468 (k[5mC]*kA*kT*dT*dG*dT*dA*d[5mC]*dT*dA*dT*dG*d[5mC]*k[5mC]*kA*kG) [compound 584468]       AR mRNA     33%
4  584269 (k[5mC]*k[5mC]*kT*dT*dA*dT*dG*dG*dA*dT*dG*d[5mC]*dT*kG*k[5mC]*kT) [compound 584269]       AR mRNA     72%
5  560131 (antisense kT*kT*kG*dA*dT*dT*dT*dA*dA*dT*dG*dG*kT*kT*kG*e[5mC]) [compound 560131]       AR mRNA     32%

Here is another substance to look at.
## Task Can you look up the measured Percent Inhibition of AR mRNA relative to the PBS control, Heart of 584149 (kG*kT*k[5mC]*dA*dA*dT*dA*dT*d[5mC]*dA*dA*dA*dG*k[5mC]*kA*k[5mC]) [compound 584149] for me?
## Result 33%

----------
Assign Percent inhibition of AR full-length mRNA to each entry below.
Tested on: AR mRNA
Assay: AR mRNA in C4-2B cells by free uptake (hAR_LTS00943)
Format: cell-based, human
Condition set: free uptake, dose 0.20 μM, 24 hrs
Oligonucleotides are written 5' to 3', each unit as a sugar letter and its base; * is a phosphorothioate linkage, no mark a phosphodiester; rarer units and linkages stand in square brackets, end groups in braces. Plain capitals give the bases only. k = constrained ethyl (cEt); [5mC] = 5-methylcytosine; d = 2'-deoxy (DNA)
Answers are plain numbers, in %.

The examples below pair each entry with its known result.
Seq string	Quantitative readout
CTAAACTTCCCGTGGC (k[5mC]*kT*kA*dA*dA*d[5mC]*dT*dT*d[5mC]*d[5mC]*d[5mC]*dG*dT*kG*kG*k[5mC]) [ISIS 549434, targets 3'-end of exon 8]	35
AAGTTGTAGTAGTCGC (kA*kA*kG*dT*dT*dG*dT*dA*dG*dT*dA*dG*dT*k[5mC]*kG*k[5mC]) [ISIS 549372, targets exon 1]	36
ACCAAGTTTCTTCAGC (LNA gapmer, phosphorothioate backbone, further chemistry not given here) [ISIS 554221, 3-10-3 LNA gapmer, phosphorothioate backbone, targeted to exon 4 of AR; benchmark, reference compound]	0

Here is another sequence to look at.
## Task Can you look up the measured Percent inhibition of AR full-length mRNA of GTTGATTTAATGGTTG (all phosphorothioate, sugars by position not given here; further chemistry not fully specified) [ISIS 549458] for me?
## Result 48
